test: method code SF-AS, from Ploquin, J.; Sparfel, L.; LeBaut, G.; Floc'h, R.; Welin, L.; Petit, Y.; Henry, N. (1974). Pyrophthalones. III. Properties of gamma-pyrophthalones. Eur J Med Chem, 9(5)526-533.; conditions: pH 7.4
Tick Met if logD is 2 or greater. Tick Not met if logD is less than 2.

These solved cases illustrate the format of a correct answer.
compound: CC(C)CCCCCN1C=CC(=C2C(=O)c3ccccc3C2=O)C=C1
class: Met
--
compound: CCCCCN1C=CC(=C2C(=O)c3ccccc3C2=O)C=C1
class: Met
--
compound: O=C1C(=C2C=CN(CC(O)CO)C=C2)C(=O)c2ccccc21 (configuration not stated)
class: Not met
--
compound: CC1=CC(=C2C(=O)c3ccccc3C2=O)C=CN1C
class: Not met
--
compound: COCCN1C=CC(=C2C(=O)c3ccccc3C2=O)C=C1
class: Met
--
compound: C=CCN1C=CC(=C2C(=O)c3ccccc3C2=O)C=C1
class: Met

Kindly consider the entry below.
Request: Quick check: does CC(C)N1C=CC(=C2C(=O)c3ccccc3C2=O)C=C1 have logD greater than or equal to 2?
Response: Met
